B1: Retinoic acid receptor beta, residues 85 to 161; numbered along this chain, P10826 (parent)
chain: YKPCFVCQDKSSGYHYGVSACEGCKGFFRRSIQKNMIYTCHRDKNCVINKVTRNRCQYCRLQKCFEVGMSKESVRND

# Variants of: B1
# assay remarks: abundance fitness (aPCA) (normalised: wild type 0, dead -1); higher = more abundant; growth selection in yeast, the domain comes from the species named
# condition label: Homo sapiens

{"columns": ["variant key", "abundance fitness"],
 "data": [
  ["S19A", 0.011],
  ["T39E", -0.025],
  ["Q62K", 0.125],
  ["R55S", 0.265],
  ["D9P", -1],
  ["S11H", -0.525],
  ["V6K", -0.82],
  ["R53M", 0.195],
  ["R30L", -1.02],
  ["R42A", 0.203],
  ["H15V", -0.091],
  ["T52D", 0.046],
  ["I37E", 0.046],
  ["N49K", -0.345],
  ["I48V", -0.065],
  ["E22R", -0.663],
  ["R30C", -0.694],
  ["F5G", -0.118],
  ["K50N", 0.021],
  ["F28E", -0.983],
  ["G26L", -0.265],
  ["S12E", -0.041],
  ["F27C", -0.703],
  ["C46E", -0.474],
  ["R30H", -0.172],
  ["G26D", 0.162],
  ["K34L", 0.074],
  ["C21G", -0.76],
  ["N35P", -0.312],
  ["Y16T", -0.069],
  ["C56F", -0.946],
  ["R29L", 0.026],
  ["R42H", -0.412],
  ["V51K", -0.013],
  ["C21A", -0.809],
  ["R60G", -0.491],
  ["R53C", 0.084],
  ["S19R", -0.121],
  ["Q33C", -0.225],
  ["N49L", -0.218],
  ["G13I", -0.279],
  ["V47Y", 0.107],
  ["V47A", 0.058],
  ["S31N", -0.508],
  ["S31L", -0.6],
  ["L61I", -0.207],
  ["V47L", 0.03],
  ["N54V", 0.11],
  ["P3I", -0.042],
  ["R30K", 0.152],
  ["C59M", -0.732],
  ["F28T", -0.604],
  ["N45R", 0.059],
  ["K34T", -0.06],
  ["Q33E", -0.017],
  ["G17P", -0.164],
  ["A20V", -0.07],
  ["I48H", -0.505],
  ["C46L", -0.668],
  ["L61A", -0.591],
  ["K2S", -0.068]
]}
